Values from a melting point compilation (Tetko et al.; mined from patent text by program, amines drawn as free bases though some values may be those of a salt)

melting point overview

Below, 2 molecules whose answers are already recorded.
{"MOLECULE": "CCCCOc1c(C(=O)O)n(CC2CC2)c(=O)c2ccc(Br)cc12", "melting point": "166 to 167 °C"}
{"MOLECULE": "O=C(O)c1cn(C2CC2)c2c(F)c(N3CCC(n4cncn4)C3)c(F)cc2c1=O (stereo not given)", "melting point": "220 to 221 °C"}

Notebook: "CC(=O)Nc1cccc(-c2nc3n(n2)CCc2ccccc2-3)c1" , melting point read as 225 to 226 °C

Entry "O=c1c2cc(Cl)ccc2ncn1CCCN1CCC(c2c[nH]c3ccccc23)CC1" , melting point reported as 138 °C

Item: "CC(C)(C)c1cc(C=O)c2c(c1O)CCCC2" | melting point: 193 to 194 °C
